# System: HeLa
# TEST METHOD NOTES: Antiproliferative activity against human HeLa cells assessed as reduction in cell viability after 48 hrs by CellTiter-Glo assay
# Format: functional, cell-based
EXPERIMENTAL READOUT: IC50 (µM)
Please give a number only; it is taken to be in µM.

// query Request the reported IC50 associated with O[C@]12C=C(c3nccc4c3[nH]c3ccccc34)[C@@H]3CCN(CCCC/C=C\CC1)C[C@@]31C[C@@H]3/C=C\CCCCN3[C@H]12 [MANZAMINE A]
// result 4
